Biological target: human A2A adenosine receptor (Homo sapiens)
Construct: expressed in transfected cells; host or cells: HEK293 or CHO cells
Sequence (P29274 whole entry): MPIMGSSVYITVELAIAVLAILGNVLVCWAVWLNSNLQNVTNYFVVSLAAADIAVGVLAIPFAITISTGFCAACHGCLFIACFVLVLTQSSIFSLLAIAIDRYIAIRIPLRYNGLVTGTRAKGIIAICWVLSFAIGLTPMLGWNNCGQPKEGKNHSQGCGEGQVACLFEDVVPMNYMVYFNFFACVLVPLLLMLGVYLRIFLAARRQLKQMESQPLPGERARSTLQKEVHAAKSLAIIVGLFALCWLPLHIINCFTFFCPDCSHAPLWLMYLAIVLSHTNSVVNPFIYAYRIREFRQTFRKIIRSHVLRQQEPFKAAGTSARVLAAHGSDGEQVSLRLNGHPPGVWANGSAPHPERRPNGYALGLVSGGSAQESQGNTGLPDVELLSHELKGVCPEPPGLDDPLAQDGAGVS
Experiment: A2A binding affinity, Method (B): scintillation proximity assay (SPA) with [3H]SCH58261
Conditions: membranes of HEK293 or CHO cells expressing the human receptor
pIC50: −log10 of the molar value.

- smiles_structure: "COc1cccc2c1nc(N)n1nc(CNC(=O)CCc3ccccc3)nc21"
  target_or_test_system: "human A2A adenosine receptor (Homo sapiens)"
  pIC50: 7.90
- smiles_structure: "COc1ccc(CN(Cc2nc3c4cccc(OC)c4nc(N)n3n2)CC2CC2)cn1"
  target_or_test_system: "human A2A adenosine receptor (Homo sapiens)"
  pIC50: 8.04
- smiles_structure: "COc1cccc2c1nc(N)n1nc(CN(CCc3ccc(C(F)(F)F)cc3)CC3CCC3)nc21"
  target_or_test_system: "human A2A adenosine receptor (Homo sapiens)"
  pIC50: 7.63
- smiles_structure: "CCN(Cc1nc2c3cccc(OC)c3nc(N)n2n1)CC1CCN(c2ncc(F)cn2)CC1"
  target_or_test_system: "human A2A adenosine receptor (Homo sapiens)"
  pIC50: 7.51
- smiles_structure: "CCN(Cc1ccccn1)Cc1nc2c3cccc(OC)c3nc(N)n2n1"
  target_or_test_system: "human A2A adenosine receptor (Homo sapiens)"
  pIC50: 7.50
- smiles_structure: "COc1cccc2c1nc(N)n1nc(CCN[C@@H](C)c3ccc(C(F)(F)F)cc3)nc21"
  target_or_test_system: "human A2A adenosine receptor (Homo sapiens)"
  pIC50: 7.56
- smiles_structure: "COc1cccc2c1nc(N)n1nc(CN(C)CCc3ccc(C(F)(F)F)cc3)nc21"
  target_or_test_system: "human A2A adenosine receptor (Homo sapiens)"
  pIC50: 8.10
- smiles_structure: "COCCN(CCc1ccc(C(F)(F)F)cc1)Cc1nc2c3cccc(OC)c3nc(N)n2n1"
  target_or_test_system: "human A2A adenosine receptor (Homo sapiens)"
  pIC50: 7.78
- smiles_structure: "COc1cccc2c1nc(N)n1nc(CN(Cc3ccc(NC(=O)C(C)(C)C)nc3)CC3CC3)nc21"
  target_or_test_system: "human A2A adenosine receptor (Homo sapiens)"
  pIC50: 8.28
- smiles_structure: "COc1cccc2c1nc(N)n1nc(CC(=O)N[C@@H]3CCOc4cc(F)ccc43)nc21"
  target_or_test_system: "human A2A adenosine receptor (Homo sapiens)"
  pIC50: 8.70
- smiles_structure: "COc1cccc2c1nc(N)n1nc(CNC(=O)CCc3ccc(C(F)(F)F)cc3)nc21"
  target_or_test_system: "human A2A adenosine receptor (Homo sapiens)"
  pIC50: 8.35
- smiles_structure: "COc1cccc2c1nc(N)n1nc(CNCc3ccc(S(F)(F)(F)(F)F)cc3)nc21"
  target_or_test_system: "human A2A adenosine receptor (Homo sapiens)"
  pIC50: 8.19
- smiles_structure: "COc1cccc2c1nc(N)n1nc(CN(CCC3CC3)Cc3ccc(C(F)(F)F)cc3)nc21"
  target_or_test_system: "human A2A adenosine receptor (Homo sapiens)"
  pIC50: 8.15
- smiles_structure: "C=CCN(Cc1ccc(OC(F)(F)F)cc1)Cc1nc2c3cccc(OC)c3nc(N)n2n1"
  target_or_test_system: "human A2A adenosine receptor (Homo sapiens)"
  pIC50: 8.51
- smiles_structure: "COc1cccc2c1nc(N)n1nc(CN[C@@H](C)C(F)(F)F)nc21"
  target_or_test_system: "human A2A adenosine receptor (Homo sapiens)"
  pIC50: 8.23
